Target: PDE9 (Homo sapiens (Human), UniProt O76083)
Sequence (O76083 whole entry): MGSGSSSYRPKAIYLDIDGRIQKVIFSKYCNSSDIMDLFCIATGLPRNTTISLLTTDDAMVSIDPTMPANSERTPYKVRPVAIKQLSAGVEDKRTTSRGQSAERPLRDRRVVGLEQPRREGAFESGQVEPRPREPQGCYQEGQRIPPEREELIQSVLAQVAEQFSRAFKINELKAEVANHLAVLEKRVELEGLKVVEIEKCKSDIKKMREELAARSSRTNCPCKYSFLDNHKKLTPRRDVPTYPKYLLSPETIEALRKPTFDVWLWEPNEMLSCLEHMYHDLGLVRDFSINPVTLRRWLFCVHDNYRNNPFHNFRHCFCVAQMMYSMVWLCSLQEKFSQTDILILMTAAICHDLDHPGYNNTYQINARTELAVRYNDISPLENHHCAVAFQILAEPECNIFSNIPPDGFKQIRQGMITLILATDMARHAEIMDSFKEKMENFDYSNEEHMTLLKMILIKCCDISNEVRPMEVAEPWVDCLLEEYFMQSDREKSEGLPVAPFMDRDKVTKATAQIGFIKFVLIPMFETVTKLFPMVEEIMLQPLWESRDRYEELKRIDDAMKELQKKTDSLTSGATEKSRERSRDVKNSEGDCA
Test: PDE9 inhibition assay
Assay type: biochemical
Protocol: A PDE9 assay may for example, be performed as follows: The assay is performed in 60 μL samples containing a fixed amount of the relevant PDE enzyme (sufficient to convert 20-25% of the cyclic nucleotide substrate), a buffer (50 mM HEPES7.6; 10 mM MgCl2; 0.02% Tween20), 0.1 mg/ml BSA, 225 pCi of ^3H-labelled cyclic nucleotide substrate, tritium labeled cAMP to a final concentration of 5 nM and varying amounts of inhibitors. […]
Endpoint name: inhibition at 10 µM (%)

{"Compound": "O=c1c2cnc(C3CC3)n2ccn1CC1CCCCCC1 [Example 13]", "inhibition at 10 µM (%)": 7}
{"Compound": "COc1ccc(Cn2c(C)cn3c(C4CCNC(=O)CC4)ncc3c2=O)cc1 (stereo not shown) [Example 88]", "inhibition at 10 µM (%)": -32}
{"Compound": "Cc1cn2c(C3CCOCC3)ncc2c(=O)n1Cc1cccc(F)c1 [Example 5]", "inhibition at 10 µM (%)": 18}
{"Compound": "Cc1cn2c(C3CCOCC3)ncc2c(=O)n1Cc1ccccc1F [Example 17]", "inhibition at 10 µM (%)": 7}
{"Compound": "Cc1cn2c(C3CC3(F)F)ncc2c(=O)n1Cc1cccc(F)c1 (stereo not shown) [Example 34]", "inhibition at 10 µM (%)": 0}

[A] O=c1c2cnc(C3CCOCC3)n2cc(Br)n1Cc1cccc(F)c1 [Example 15]
[B] O=c1c2cnc(C3CC3)n2ccn1Cc1cccc(F)c1 [Example 6]
[C] CC(=O)Nc1ccc(Cn2c(C)cn3c(C4CCOCC4)ncc3c2=O)cc1 [Example 47]
[D] Cc1cc(Cn2c(C)cn3c(C4CCOCC4)ncc3c2=O)on1 [Example 83]
[E] O=c1c2cnc(C3CCOCC3)n2cc(Cc2ccccc2)n1CC1CCCCC1 [Example 3]
Rank items: key inhibition at 10 µM, increasing. Reply: labels, ordered per the request.
E, D, C, A, B

[a] Cc1cn2c(C3CCOCC3)ncc2c(=O)n1Cc1ccc(Cl)cc1 [Example 14]
[b] COCC(C)(C)c1ncc2c(=O)n(Cc3ccc(OC)cc3)c(C)cn12 [Example 76]
Lower value of inhibition at 10 µM belongs to which: a or b ? Identify your pick by its label.
b

[I] O=c1c2cnc(C3CCOCC3)n2ccn1CC1CCCC1 [Example 10]
[II] CCc1cn2c(C3CCOCC3)ncc2c(=O)n1Cc1cccc(F)c1 [Example 54]
Hi there! Just curious which has the higher inhibition at 10 µM between I and II . I would appreciate it if you answered with the label of your choice.
II

###

target: PDE1C (Homo sapiens (Human), UniProt Q14123); assay: PDE1 inhibition assay, PDE1C; format: biochemical; conditions: 15 nM tritium labelled cAMP
Sequence (Q14123 whole entry): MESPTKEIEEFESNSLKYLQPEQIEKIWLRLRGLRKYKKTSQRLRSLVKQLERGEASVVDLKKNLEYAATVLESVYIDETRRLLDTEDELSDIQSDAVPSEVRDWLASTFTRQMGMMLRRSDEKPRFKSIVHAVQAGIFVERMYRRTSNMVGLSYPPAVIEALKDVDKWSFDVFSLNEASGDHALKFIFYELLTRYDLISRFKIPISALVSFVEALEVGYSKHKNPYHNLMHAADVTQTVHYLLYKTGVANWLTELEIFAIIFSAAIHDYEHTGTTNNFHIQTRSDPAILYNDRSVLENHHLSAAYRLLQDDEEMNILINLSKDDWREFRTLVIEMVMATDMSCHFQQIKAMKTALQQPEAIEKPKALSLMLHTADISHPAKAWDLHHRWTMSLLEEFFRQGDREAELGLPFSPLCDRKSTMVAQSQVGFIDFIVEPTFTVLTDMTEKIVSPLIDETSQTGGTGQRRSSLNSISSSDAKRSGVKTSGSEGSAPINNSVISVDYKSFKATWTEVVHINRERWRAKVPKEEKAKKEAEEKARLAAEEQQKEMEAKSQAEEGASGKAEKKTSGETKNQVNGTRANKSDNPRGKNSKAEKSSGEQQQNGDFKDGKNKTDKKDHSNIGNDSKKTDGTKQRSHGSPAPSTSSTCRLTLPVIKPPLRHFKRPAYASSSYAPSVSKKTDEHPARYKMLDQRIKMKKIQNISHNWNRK
pIC50: −log10 of the molar value.
Endpoint name: pIC50

Answered examples (4):
{"Compound": "Cc1cn2c(C3(C)CC3)ncc2c(=O)n1Cc1cccc(F)c1", "pIC50": 8.15}
{"Compound": "Cc1cn2c([C@]3(C)CCOC3)ncc2c(=O)n1Cc1cccc(F)c1 (single isomer, unassigned; isomer 1) [32, isomer 1]", "pIC50": 7.66}
{"Compound": "Cc1ccc(Cn2c(C)cn3c(C4CCOCC4)ncc3c2=O)cc1", "pIC50": 7.17}
{"Compound": "Cc1cn2c(C3(C)CCOCC3)ncc2c(=O)n1Cc1cccc(F)c1", "pIC50": 7.33}

[1] O=c1c2cnc(C3CCOCC3)n2ccn1Cc1cccc(F)c1
[2] CCCc1ncc2c(=O)n(Cc3ccc(OC)cc3)c(C)cn12
// compare measured pIC50, left 1 , right 2 , return larger Mark your answer with the label of the selected entry.
2

[I] Cc1cn2c(C3CCOCC3)ncc2c(=O)n1Cc1ccc(OC(F)F)cc1
[II] O=c1c2cnc(C3CCOCC3)n2cc(Br)n1Cc1cccc(F)c1
Given the two records I and II , choose the one whose pIC50 value is lower. Indicate your choice by writing its label.
I

###

What follows is a collection of IC50 values obtained with PDE1A (Homo sapiens (Human), UniProt P54750).
Sequence (P54750 whole entry): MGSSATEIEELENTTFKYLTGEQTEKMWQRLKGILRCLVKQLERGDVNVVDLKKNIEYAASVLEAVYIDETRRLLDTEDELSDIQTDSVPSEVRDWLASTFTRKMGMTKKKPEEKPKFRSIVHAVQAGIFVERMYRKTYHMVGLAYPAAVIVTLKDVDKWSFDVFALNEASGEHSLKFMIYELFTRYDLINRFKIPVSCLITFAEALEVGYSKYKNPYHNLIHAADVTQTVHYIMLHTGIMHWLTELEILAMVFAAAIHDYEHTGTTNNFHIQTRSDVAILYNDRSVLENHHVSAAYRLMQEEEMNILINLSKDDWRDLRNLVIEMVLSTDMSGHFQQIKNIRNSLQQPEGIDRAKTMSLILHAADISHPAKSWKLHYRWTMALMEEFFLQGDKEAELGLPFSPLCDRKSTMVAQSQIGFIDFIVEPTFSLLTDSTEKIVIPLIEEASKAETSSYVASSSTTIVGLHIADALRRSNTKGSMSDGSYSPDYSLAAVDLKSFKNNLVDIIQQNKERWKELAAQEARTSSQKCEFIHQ
Endpoint name: IC50 (nM)

# annotated cases, reported IC50 shown
{"Compound": "Cc1cn2c(C3CCOCC3)ncc2c(=O)n1Cc1ccc(OC2CC2)cc1", "Assay system": "PDE1A (Homo sapiens (Human), UniProt P54750)", "Endpoint unit": "nM", "IC50": 413}
{"Compound": "Cc1cn2c([C@@H]3CCOC3)ncc2c(=O)n1Cc1cccc(F)c1 (single isomer, unassigned; isomer 1) [31, isomer 1]", "Assay system": "PDE1A (Homo sapiens (Human), UniProt P54750)", "Endpoint unit": "nM", "IC50": 337}
{"Compound": "CCCc1ncc2c(=O)n(Cc3ccc(OC)cc3)c(C)cn12", "Assay system": "PDE1A (Homo sapiens (Human), UniProt P54750)", "Endpoint unit": "nM", "IC50": 65}
{"Compound": "Cc1cc(Cn2c(C)cn3c(C4CCOCC4)ncc3c2=O)on1", "Assay system": "PDE1A (Homo sapiens (Human), UniProt P54750)", "Endpoint unit": "nM", "IC50": 4440}

[P] Cc1cn2c([C@@H]3C[C@@H]3C)ncc2c(=O)n1Cc1cccc(F)c1 (single isomer, unassigned; isomer 1) [35, isomer 1]
[Q] CCc1cn2c(C3CCOCC3)ncc2c(=O)n1Cc1ccc(OC)cc1
Would you let me know which has the greater IC50 value, P or Q ? Your answer should be the label of the entry you select.
P

###

Here we list molecules with their recorded IC50 when tested on PDE1A (Homo sapiens (Human), UniProt P54750).
Endpoint name: IC50 (nM)

[P] O=c1c2cnc(C3CCOCC3)n2ccn1CC1CCCCCC1 [Example 12]
[Q] Cc1cn2c(C3CCOCC3)ncc2c(=O)n1Cc1ccc(Cl)cc1 [Example 14]
[R] Cc1cn2c([C@@H]3CCCOC3)ncc2c(=O)n1Cc1cccc(F)c1 (single isomer, unassigned; isomer 1) [100, isomer 1]
Descending by IC50 please, for everything listed above. Output spec: a listing of the labels in the requested order.
R, P, Q
(R: 306 nM, P: 30 nM, Q: 18 nM)

###

biological target: PDE9 (Homo sapiens (Human)); experiment: PDE9 inhibition assay; format: biochemical; conditions: at 10 microM
Endpoint name: % inhibition of PDE9 at 10 microM (%)

{"Compound": "Cc1cn2c(N3CCC4OCCC43)ncc2c(=O)n1Cc1cccc(F)c1 (single isomer, unassigned; isomer 2) [99, isomer 2]", "% inhibition of PDE9 at 10 microM (%)": 6}
{"Compound": "Cc1cn2c([C@@H]3CCCCO3)ncc2c(=O)n1Cc1cccc(F)c1 (single isomer, unassigned; isomer 1) [30, isomer 1]", "% inhibition of PDE9 at 10 microM (%)": "−11"}
{"Compound": "COc1ccc(Cn2c(C)cn3c([C@H]4CCO[C@H]4C)ncc3c2=O)cc1 (single isomer, unassigned; isomer 4) [55, isomer 4]", "% inhibition of PDE9 at 10 microM (%)": 1}

[1] Cc1cn2c([C@H]3CCO[C@@H]3C)ncc2c(=O)n1Cc1cccc(F)c1 (single isomer, unassigned; isomer 2) [36, isomer 2]
[2] Cc1cn2c([C@@H]3CCO[C@H]3C)ncc2c(=O)n1Cc1cccc(F)c1 (single isomer, unassigned; isomer 3) [36, isomer 3]
[3] Cc1cn2c([C@]3(C)CCOC3)ncc2c(=O)n1Cc1cccc(F)c1 (single isomer, unassigned; isomer 1) [32, isomer 1]
Please give the order of these compounds when sorted by % inhibition of PDE9 at 10 microM, largest value leading. Your reply should list the labels following the order given in the request.
1, 3, 2

###

molecular target: UniProtKB Q01064
Sequence (Q01064 whole entry): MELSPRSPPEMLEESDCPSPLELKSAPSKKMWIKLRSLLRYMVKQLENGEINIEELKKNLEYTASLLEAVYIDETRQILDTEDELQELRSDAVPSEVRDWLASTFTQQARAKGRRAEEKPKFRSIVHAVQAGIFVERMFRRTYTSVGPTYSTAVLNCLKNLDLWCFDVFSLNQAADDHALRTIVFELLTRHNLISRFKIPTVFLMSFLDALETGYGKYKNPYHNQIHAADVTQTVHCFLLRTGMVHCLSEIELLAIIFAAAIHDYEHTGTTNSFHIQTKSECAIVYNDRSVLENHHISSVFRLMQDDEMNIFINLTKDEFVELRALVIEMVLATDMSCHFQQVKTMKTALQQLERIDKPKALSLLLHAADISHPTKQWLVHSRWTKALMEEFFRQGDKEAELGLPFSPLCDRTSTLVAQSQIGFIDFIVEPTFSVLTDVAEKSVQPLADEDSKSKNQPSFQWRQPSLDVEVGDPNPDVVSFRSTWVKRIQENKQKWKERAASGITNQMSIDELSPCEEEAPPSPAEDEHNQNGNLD
pIC50: −log10 of the molar value.
Endpoint name: pIC50

{"Compound": "CCn1c(C)cn2c(C3CCOCC3)ncc2c1=O", "pIC50": 6.30}
{"Compound": "COc1ccc(Cn2c(C)cn3c(C4CCOCC4)ncc3c2=O)cn1", "pIC50": 7.59}
{"Compound": "COc1ccc(Cn2c(C)cn3c([C@@H](C)c4ccccc4)ncc3c2=O)cc1", "pIC50": 6.62}
{"Compound": "COc1ccc(Cn2c(C)cn3c([C@H](C)c4ccccc4)ncc3c2=O)cc1", "pIC50": 7.92}
{"Compound": "Cc1cn2c(C3CCOCC3)ncc2c(=O)n1Cc1cccc(Cl)c1", "pIC50": 7.31}
{"Compound": "Cc1ccccc1Cn1c(C)cn2c(C3CCOCC3)ncc2c1=O", "pIC50": 6.71}
{"Compound": "Cc1cn2c([C@@H]3CCO[C@H]3C)ncc2c(=O)n1Cc1cccc(F)c1 (single isomer, unassigned; isomer 3) [36, isomer 3]", "pIC50": 7.68}
{"Compound": "COc1ccc(Cn2c(C)cn3c([C@@H]4CCO[C@H]4C)ncc3c2=O)cc1 (single isomer, unassigned; isomer 2) [55, isomer 2]", "pIC50": 7.19}

[a] Cc1cn2c([C@H]3C[C@@H]3C)ncc2c(=O)n1Cc1cccc(F)c1 (single isomer, unassigned; isomer 3) [35, isomer 3]
[b] Cc1cn2c(C3CCOCC3)ncc2c(=O)n1C[C@H]1CC[C@H](C)CC1 [66, trans]
Consider entries a and b . Which has the numerically lower pIC50? Let me know the label of the one you choose.
a

[a] CCCc1ncc2c(=O)n(Cc3ccc(OC)cc3)c(C)cn12
[b] COc1ccc(Cn2c(C)cn3c(C4(C)CCN(S(N)(=O)=O)C4)ncc3c2=O)cc1 (centres unmarked)
[c] COc1ccc(Cn2c(C)cn3c([C@@H]4CCO[C@@H]4C)ncc3c2=O)cc1 (single isomer, unassigned; isomer 1) [55, isomer 1]
[d] Cc1cn2c([C@H]3CCO[C@@H]3C)ncc2c(=O)n1Cc1cccc(F)c1 (single isomer, unassigned; isomer 2) [36, isomer 2]
Rank items: key pIC50, increasing. A ranking is expressed here by listing the labels in the requested order.
b, d, a, c
(b: 6.73, d: 6.97, a: 7.68, c: 8.00)

[A] Cc1cn2c(C3(C)CCOCC3)ncc2c(=O)n1Cc1cccc(F)c1
[B] O=c1c2cnc(C3CCOCC3)n2cc(Cc2ccccc2)n1CC1CCCCC1
Compare reported pIC50 values for A and B . Which is lower? Indicate which entry you chose by stating its label.
A
(A: 6.66, B: 7.92)

[P] Cc1cn2c([C@@H]3C[C@H]3C)ncc2c(=O)n1Cc1cccc(F)c1 (single isomer, unassigned; isomer 2) [35, isomer 2]
[Q] Cc1cn2c([C@@H]3CCO[C@@H]3C)ncc2c(=O)n1Cc1cccc(F)c1 (single isomer, unassigned; isomer 1) [36, isomer 1]
Pick one: P or Q . Which one has the lower reported pIC50? API: response body contains the label of the selected item.
P
(P: 6.78, Q: 7.23)

This collection of values is drawn from patent US10858362B2.
